Attribution: a melting point compilation (Tetko et al.; mined from patent text by program, amines drawn as free bases though some values may be those of a salt)

endpoint: melting point

Prompt line: Reported melting point for CNC(=NS(=O)(=O)c1ccc(C(F)(F)F)cc1)N1CC(c2ccccc2)C(c2ccc(Cl)cc2)=N1 (single isomer, unassigned; (-)) : what is it?
Response line: 157 to 160 °C

Prompt line: Reported melting point for Cc1cccc(-n2c(-c3sc(Nc4ccccc4)nc3-c3ccccc3)nc3ccccc3c2=O)c1 : what is it?
Response line: 105 to 107 °C

Prompt line: Reported melting point for [N-]=[N+]=Nc1nc(N=[N+]=[N-])nc(-c2ccccc2)n1 : what is it?
Response line: 130 to 132 °C

Prompt line: Reported melting point for CCOc1nc(C(F)(F)F)cc(=O)n1-c1cc(C(=O)OC)c(Cl)cc1F : what is it?
Response line: 96 to 98 °C

Prompt line: Reported melting point for CNC1=CC(=O)N(C)C1 : what is it?
Response line: 132 to 134 °C

Further cases:
Prompt line: Reported melting point for CC(n1cncn1)C(O)(COc1ccc(Cl)cc1)C(C)(C)C (stereo unspecified) : what is it?
Response line: 80 to 104 °C

Prompt line: Reported melting point for COC(=O)NC(=S)Nc1ccon1 : what is it?
Response line: 165 to 167 °C

Prompt line: Reported melting point for N#Cc1cc([N+](=O)[O-])[nH]c1-c1ccc(Cl)cc1 : what is it?
Response line: 201 to 206 °C

Prompt line: Reported melting point for CC(C)(C)OC(=O)N1CCN(C(=O)N2CC(=O)Nc3ccccc32)CC1 : what is it?
Response line: 166 to 167 °C

---

Measured melting point, listed per entry for reference.

Prompt line: Reported melting point for CCOC(=O)c1ccc(NCCCCCCOc2ccccc2)cc1 : what is it?
Response line: 105 to 108 °C

Prompt line: Reported melting point for Cc1nc2c(O)c(CCC(=O)c3ccccc3F)c(C(=O)N(C)C)cc2n1C : what is it?
Response line: 218 to 221 °C

Prompt line: Reported melting point for Clc1ccc(Nc2nnc(Cc3ccncc3)c3ccncc23)cc1 : what is it?
Response line: 220 to 221 °C

Prompt line: Reported melting point for CCOC(=O)c1ccc(NC(=O)c2cc(Cl)ccc2OC)cc1OCC : what is it?
Response line: 108 to 111 °C

Prompt line: Reported melting point for Cc1ccc(S)c(C(=O)O)c1 : what is it?
Response line: 56 to 58 °C

Further cases:
Prompt line: Reported melting point for CCc1noc(-c2cc3c(cn2)[nH]c2ccccc23)n1 : what is it?
Response line: 146 to 149 °C

Prompt line: Reported melting point for C=CC[C@H]1C[C@@](OS(C)(=O)=O)(C(=O)OC)C[C@@H](OC(=O)c2ccccc2)[C@@H]1OS(C)(=O)=O : what is it?
Response line: 154 to 155 °C

Prompt line: Reported melting point for C/C(=C\c1ccc(O)cc1)c1ccc2c(c1)OCC(C)(C)CO2 : what is it?
Response line: 70 to 71 °C

Prompt line: Reported melting point for N#Cc1cc(Oc2ccc(Cl)cc2Cl)c(O)cc1Cl : what is it?
Response line: 145 to 150 °C

Prompt line: Reported melting point for O=c1[nH]c(=O)n([C@@H]2O[C@H](CO)[C@@H](O)[C@H]2O)cc1/C(I)=C\I : what is it?
Response line: 107 to 109 °C
